Ref: patent US12312354B2

The following compounds are shown together with reported pIC50 values.
- system.tested: BTK (Homo sapiens, UniProt Q06187)
- Sequence (Q06187 whole entry): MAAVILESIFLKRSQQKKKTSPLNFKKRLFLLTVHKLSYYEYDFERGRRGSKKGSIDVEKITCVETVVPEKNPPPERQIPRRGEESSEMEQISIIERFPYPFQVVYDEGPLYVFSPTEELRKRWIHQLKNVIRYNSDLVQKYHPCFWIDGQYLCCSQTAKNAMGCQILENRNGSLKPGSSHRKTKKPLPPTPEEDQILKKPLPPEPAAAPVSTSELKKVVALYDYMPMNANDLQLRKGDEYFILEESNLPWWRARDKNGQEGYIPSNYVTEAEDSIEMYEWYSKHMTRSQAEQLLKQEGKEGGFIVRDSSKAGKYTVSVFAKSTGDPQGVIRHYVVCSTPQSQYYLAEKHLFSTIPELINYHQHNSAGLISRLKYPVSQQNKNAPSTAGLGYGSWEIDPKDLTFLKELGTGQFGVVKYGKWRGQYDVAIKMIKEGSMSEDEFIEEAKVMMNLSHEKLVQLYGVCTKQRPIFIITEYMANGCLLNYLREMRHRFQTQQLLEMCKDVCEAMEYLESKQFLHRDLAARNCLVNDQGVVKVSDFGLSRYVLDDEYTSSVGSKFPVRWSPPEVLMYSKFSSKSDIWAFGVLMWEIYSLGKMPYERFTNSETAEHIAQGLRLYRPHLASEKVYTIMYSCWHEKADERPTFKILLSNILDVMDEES
- test.details: In vitro kinase assay (biochemical), BTK
- recorded.conditions: in vitro kinase assay
pIC50: −log10 of the molar value.
endpoint.name: pIC50

{"compound": "C=CC(=O)N1CCC[C@@H](n2cc(-c3ccc(Oc4ccccc4)cc3C)c3c(N)ncnc32)C1", "censoring.qualifier": "=", "numeric.readout": 8.19}
{"compound": "C=CC(=O)N1CCC[C@H](n2c(C)c(-c3ccc(Oc4ccccc4)cc3C)c3c(N)ncnc32)C1 (single isomer, unassigned) [(Ra)-3.2]", "censoring.qualifier": "=", "numeric.readout": 6.37}
{"compound": "C=CC(=O)N1CCCC(n2c(C)c(-c3ccc(C(=O)Nc4ccccn4)cc3C)c3c(N)ncnc32)C1 (single isomer, unassigned) [(Sa)-3.10]", "censoring.qualifier": "=", "numeric.readout": 7.66}
{"compound": "C=CC(=O)N1CCCC(n2c(C)c(-c3ccc(C(=O)Nc4ccccn4)cc3C)c3c(N)ncnc32)C1 (single isomer, unassigned) [(Ra)-3.10]", "censoring.qualifier": "=", "numeric.readout": 7.62}
{"compound": "C=CC(=O)N1CCC[C@@H](n2c(C)c(-c3ccc(Oc4ccccc4)cc3C)c3c(N)ncnc32)C1 (single isomer, unassigned) [(Sa)-3.1]", "censoring.qualifier": "<", "numeric.readout": 5.00}
{"compound": "C=CC(=O)N1CCC[C@@H](n2cc(-c3ccc(Oc4ccccc4)cc3)c3c(N)ncnc32)C1", "censoring.qualifier": "=", "numeric.readout": 8.57}
